# Target: full-length beta-Catenin (Uniprot ID P35222) (Homo sapiens (Human)) (UniProt P35222)
# Sequence (P35222 whole entry): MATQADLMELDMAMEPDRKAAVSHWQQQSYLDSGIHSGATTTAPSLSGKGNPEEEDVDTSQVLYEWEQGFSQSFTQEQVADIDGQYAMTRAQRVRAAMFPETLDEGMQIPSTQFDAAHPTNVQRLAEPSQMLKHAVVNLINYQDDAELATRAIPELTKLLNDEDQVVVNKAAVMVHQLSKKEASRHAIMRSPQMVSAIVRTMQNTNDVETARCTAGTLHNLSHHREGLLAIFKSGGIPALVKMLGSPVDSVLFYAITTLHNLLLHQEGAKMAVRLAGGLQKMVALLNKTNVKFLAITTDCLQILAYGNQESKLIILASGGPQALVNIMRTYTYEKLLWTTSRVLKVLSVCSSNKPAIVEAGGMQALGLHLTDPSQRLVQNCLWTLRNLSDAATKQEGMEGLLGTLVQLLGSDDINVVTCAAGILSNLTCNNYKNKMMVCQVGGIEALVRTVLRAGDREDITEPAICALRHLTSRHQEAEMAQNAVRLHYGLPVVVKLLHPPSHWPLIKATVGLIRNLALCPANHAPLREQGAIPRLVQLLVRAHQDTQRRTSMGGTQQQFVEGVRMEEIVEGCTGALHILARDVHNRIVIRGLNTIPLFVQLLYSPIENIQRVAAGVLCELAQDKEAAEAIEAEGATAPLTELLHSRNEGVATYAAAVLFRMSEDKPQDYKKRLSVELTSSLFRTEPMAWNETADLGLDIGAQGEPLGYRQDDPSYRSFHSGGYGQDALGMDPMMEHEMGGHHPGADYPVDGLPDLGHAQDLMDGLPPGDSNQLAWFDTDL
# Procedure summary: fluorescence polarization competition; peptide titrated against 10 nM full-length beta-catenin + 10 nM 5FAM-TCF4(10-53) probe
Starred links: 1 amine or outer side, 2 acyl side, 3 side chain; linkers in the order of their positions; H or OH if unused. Positions of bridges follow the written chain, without caps; N, C: chain ends. Non-standard residues stand in square brackets, D forms with d. Primed or numbered codes have the meaning given here. B5(4) = 2,2-bis(4-pentenyl)glycine = 2-amino-2-(pent-4-en-1-yl)hept-6-enoic acid (stitching residue), C=CCCCC(CCCC=C)(N[*:1])C(=O)[*:2]; B5(3) = 2,2-bis(4-pentenyl)glycine (stitching residue), C=CCCCC(CCCC=C)(N[*:1])C(=O)[*:2]; Ala(1H-tetrazol-5-yl) = N[C@@H](Cc1nnn[nH]1)C(=O)O; Phe(3-F) = N[C@@H](Cc1cccc(F)c1)C(=O)O; Bta = N[C@@H](Cc1csc2ccccc12)C(=O)O; αAllylPro = C=CC[C@@]1(C(=O)O)CCCN1; 2Thi = N[C@@H](Cc1cccs1)C(=O)O; 3Thi = N[C@@H](Cc1ccsc1)C(=O)O; S8 = C=CCCCCCC[C@](C)(N)C(=O)O
Reported property: IC50 (µM)
Numeric answer only, unit µM assumed.

Ac-[αAllylPro]DA[B5(4)]DEAA[3Thi]Q[S8][Phe(3-F)][Bta]Q-NH2 (staple 1-4, 4-11) [I-429] = 0.146
Ac-[αAllylPro][Ala(1H-tetrazol-5-yl)]A[B5(3)]DEAAFQ[S8]F[Bta]Q-NH2 (staple 1-4, 4-11; also: staple isomer composition, earlier eluting HPLC peak) [I-416] = 5

// next item, IC50 requested
Req: Dear colleague, I am looking for the recorded IC50 of the following binder: Ac-[αAllylPro]DI[B5(3)]DEAA[2Thi]Q[S8][Phe(3-F)][Bta]Q-NH2 (staple 1-4, 4-11) [I-412]
Resp: 0.092

All figures here come from patent US20240116985A1.
